Please go through the items and note down their T/C.
experimental-target: Nuclear factor erythroid 2-related factor 2 (Mus musculus)
assay-summary: Activation of Nrf2 in mouse Hepa1c1c7 cells assessed as increase in NQO1 activity at 12.5 uM using menadione as substrate incubated for 20 mins followed by substrate addition and measured after 30 mins by spectrophotometry relative to control
stated-conditions: filed as activator, time 50.0 min
// no unit, no text: just the number

Form field T/C, entry `Cc1cccc([N+](=O)[O-])c1NC(=O)CSc1nc2c(I)cc(I)cc2c(=O)n1-c1ccc(S(N)(=O)=O)cc1` : 1.05

// `Cc1ccc(NC(=O)CSc2nc3c(I)cc(I)cc3c(=O)n2-c2ccc(S(N)(=O)=O)cc2)cc1` : T/C value = 1

molecule `COc1ccc(NC(=O)CSc2nc3c(I)cc(I)cc3c(=O)n2-c2ccc(S(N)(=O)=O)cc2)cc1` , T/C observed: 1.08

// `CCc1ccc(NC(=O)CSc2nc3c(I)cc(I)cc3c(=O)n2-c2ccc(S(N)(=O)=O)cc2)cc1` : T/C value = 1.01

// recorded T/C for `NS(=O)(=O)c1ccc(-n2c(SCC(=O)Nc3ccccc3)nc3c(I)cc(I)cc3c2=O)cc1` : 1.18

Value of measured T/C for the entry `Cc1cccc(NC(=O)CSc2nc3c(I)cc(I)cc3c(=O)n2-c2ccc(S(N)(=O)=O)cc2)c1` : 1.14

The molecule listed as `Cc1ccccc1NC(=O)CSc1nc2c(I)cc(I)cc2c(=O)n1-c1ccc(S(N)(=O)=O)cc1` shows T/C equal to 1.27
